- EXPERIMENTAL DETAILS: Selectivity index, ratio of CC50 for dog MDCK cells to IC50 for Influenza A virus (A/California/07/09(H1N1)) pdm09 infected in MDCK cells
- Assay type: toxicity, cell-based
- MEASUREMENT SETUP: read-out: Ratio CC50/IC50
Response field label: string, one of YES (selectivity ratio strictly below 10) or NO.

The examples below pair each entry with its known result.
1. O=C(CCN1CCCCC1)Nc1cc(C(F)(F)F)cc2sc(=O)sc12	YES
2. O=C(Nc1cc(C(F)(F)F)cc2sc(=O)sc12)C(F)(F)F	NO
3. CC(=O)Nc1cc(C(F)(F)F)cc2sc(=O)sc12	YES
4. CC(N)C12CC3CC(CC(C3)C1)C2 (stereo unspecified)	YES
5. O=C(CCN1CCCC1)Nc1cc(C(F)(F)F)cc2sc(=O)sc12	NO
6. NC(=O)c1ncn([C@@H]2O[C@H](CO)[C@@H](O)[C@H]2O)n1	NO

Consider the additional molecule presented here.
Req: Please check: selectivity ratio for O=C(CN1CCCCC1)Nc1cc(C(F)(F)F)cc2sc(=O)sc12 , strictly under 10 or not?
Resp: NO

====

- EXPERIMENTAL DETAILS: Antiviral activity against Influenza A virus (A/California/07/09(H1N1))pdm09 infected in MDCK cells assessed as reduction in viral replication preincubated with compound for 1 hr followed by viral infection and measured after viral cultivation for 48 hrs by hemagglutination test
- Type: functional, cell-based, Influenza A virus (A/California/07/2009(H1N1))
Strictly below 20 µM in IC50: 1. Otherwise: 0.

1. O=C(CCN1CCCCC1)Nc1cc(C(F)(F)F)cc2sc(=O)sc12	0
2. O=C(CCN1CCCC1)Nc1cc(C(F)(F)F)cc2sc(=O)sc12	1

Req: Problem: For the compound NC(=O)c1ncn([C@@H]2O[C@H](CO)[C@@H](O)[C@H]2O)n1 , is IC50 under 20 µM?
Resp: 0

Req: Is the reported IC50 for O=C(CN1CCCCC1)Nc1cc(C(F)(F)F)cc2sc(=O)sc12 strictly below 20 µM?
Resp: 1

Req: A record lists O=C(CN1CCOCC1)Nc1cc(C(F)(F)F)cc2sc(=O)sc12 . Is its IC50 below 20 µM?
Resp: 1

====

- EXPERIMENTAL DETAILS: Selectivity index, ratio of CC50 for dog MDCK cells to IC50 for Influenza A virus (A/California/07/09(H1N1)) pdm09 infected in MDCK cells
- Type: toxicity, cell-based
- MEASUREMENT SETUP: read-out: Ratio CC50/IC50
QUANTITY MEASURED: selectivity ratio

1) O=C(CN1CCOCC1)Nc1cc(C(F)(F)F)cc2sc(=O)sc12	3
2) O=C(CN1CCCC1)Nc1cc(C(F)(F)F)cc2sc(=O)sc12	4
3) Nc1cc(C(F)(F)F)cc2sc(=O)sc12	11

Req: Looking for the measured selectivity ratio of O=C(CCN1CCOCC1)Nc1cc(C(F)(F)F)cc2sc(=O)sc12 , can you help?
Resp: 11

====

- EXPERIMENTAL DETAILS: Antiviral activity against Influenza A virus (A/California/07/09(H1N1))pdm09 infected in MDCK cells assessed as reduction in viral replication preincubated with compound for 1 hr followed by viral infection and measured after viral cultivation for 48 hrs by hemagglutination test
- Format: functional, cell-based, Influenza A virus (A/California/07/2009(H1N1))
QUANTITY MEASURED: pIC50
pIC50 here is simply -log10 of the concentration when that concentration is written in mol/L.

Record excerpt, results attached:
1) Nc1cc(C(F)(F)F)cc2sc(=O)sc12	4.72
2) CC(=O)Nc1cc(C(F)(F)F)cc2sc(=O)sc12	4.42
3) O=C(CN1CCCC1)Nc1cc(C(F)(F)F)cc2sc(=O)sc12	3.72
4) O=C(CCN1CCOCC1)Nc1cc(C(F)(F)F)cc2sc(=O)sc12	5.05
5) CC(N)C12CC3CC(CC(C3)C1)C2 (stereo unspecified)	4.39

Moving on to another compound below.
Req: Tell me the measured pIC50 of O=C(Nc1cc(C(F)(F)F)cc2sc(=O)sc12)C(F)(F)F , please.
Resp: 6.70
